Origin of values: patent EP4624471A1

// reported IC50 per item
Target: PKMYT1 enzyme (Homo sapiens)
Construct: purchased Thermo Scientific A33387
Sequence (Q99640 whole entry): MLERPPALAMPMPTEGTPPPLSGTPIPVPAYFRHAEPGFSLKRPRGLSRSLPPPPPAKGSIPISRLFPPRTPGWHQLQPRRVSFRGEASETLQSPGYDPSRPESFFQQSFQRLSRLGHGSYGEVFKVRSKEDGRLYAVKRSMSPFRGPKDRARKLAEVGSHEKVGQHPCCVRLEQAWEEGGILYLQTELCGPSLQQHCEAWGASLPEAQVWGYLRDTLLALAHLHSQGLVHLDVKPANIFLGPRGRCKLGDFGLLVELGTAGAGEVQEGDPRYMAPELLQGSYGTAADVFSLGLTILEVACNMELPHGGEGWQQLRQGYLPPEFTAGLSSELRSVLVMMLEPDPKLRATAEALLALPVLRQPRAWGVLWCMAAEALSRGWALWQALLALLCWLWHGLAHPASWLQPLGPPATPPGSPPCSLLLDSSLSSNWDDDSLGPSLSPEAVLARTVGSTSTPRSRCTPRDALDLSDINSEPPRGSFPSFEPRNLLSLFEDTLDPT
Experiment: PKMYT1 enzyme inhibition activity, ADP-GLO method
Type: biochemical
Conditions: PKMYT1 enzyme 10 nM, ATP 5 µM, 37°C 90 minutes; read-out: ADP-GLO IC50

- Compound: "CNc1ncc2c(C(N)=O)c(N)n(-c3c(C)ccc(O)c3C)c2n1"
  Unit name: "nM"
  IC50: 6.7
- Compound: "Cc1cc(F)c(O)c(C)c1-n1c(N)c(C(N)=O)c2cc(N(C)C)c(C)nc21 (atropisomer, axis not shown) [Example 169.1]"
  Unit name: "nM"
  IC50: 6.31
- Compound: "Cc1cc(F)c(O)c(C)c1-n1c(N)c(C(N)=O)c2cc(CC(C)C)c(C)nc21 (racemic) [Example 166]"
  Unit name: "nM"
  IC50: 8.4
- Compound: "C=Cc1nc2c(cc1C)c(C(N)=O)c(N)n2-c1c(C)c(O)cc(F)c1C"
  Unit name: "nM"
  IC50: 8.71
